Protocol Text: Elimination half life in human at 1 g, iv infusion for 30 mins
Format: ADME, organism-based
Experimental Setup: in vivo, read-out: beta t1/2 (converted)
Experimental Readout: half-life (h)
Value expressed in h; do not type the unit.

Recorded half-life of C[C@@H](O)[C@H]1C(=O)N2C(C(=O)O)=C(S[C@@H]3CN[C@H](C(=O)N(C)C)C3)[C@H](C)[C@H]12 , please.
1

###

Protocol Text: Half life of compound
Type: physicochemical
Experimental Readout: half-life (min)
Value expressed in min; do not type the unit.

Recorded half-life of CC1(C)S[C@@H]2[C@H](NC(=O)Cc3ccccc3)C(=O)N2[C@H]1C(=O)O [PENICILLIN G] , please.
20

###

Protocol Text: Half life of compound in human
Type: ADME
Experimental Readout: half-life
Provide the measurement as a number trailed by its unit.

Recorded half-life of CC1(C)S[C@@H]2[C@H](NC(=O)C(C(=O)O)c3ccccc3)C(=O)N2[C@H]1C(=O)O (stereo partly specified) , please.
1 h

###

Protocol Text: Oral bioavailability in human
Type: ADME, organism-based
Experimental Setup: in vivo
Experimental Readout: bioavailability (%)
Value expressed in %; do not type the unit.

Recorded bioavailability of C[C@H]1[C@H](NC(=O)/C(=N\OC(C)(C)C(=O)O)c2csc(N)n2)C(=O)N1S(=O)(=O)O , please.
1

###

Protocol Text: Protein binding in plasma (unknown origin)
Assay type: ADME, cell-free
Experimental Setup: read-out: PPB (converted)
Experimental Readout: fraction unbound
Returns: the value as a bare number; no unit string appended.

Cc1onc(-c2ccccc2Cl)c1C(=O)N[C@@H]1C(=O)N2[C@@H]1SC(C)(C)[C@@H]2C(=O)O	0.1
CC1(C)S[C@@H]2[C@H](NC(=O)[C@H](N)c3ccc(O)cc3)C(=O)N2[C@H]1C(=O)O	0.7

Recorded fraction unbound of Cc1onc(-c2ccccc2)c1C(=O)N[C@@H]1C(=O)N2[C@@H]1SC(C)(C)[C@@H]2C(=O)O , please.
0.1

Recorded fraction unbound of CC1(C)S[C@@H]2[C@H](NC(=O)Cc3ccccc3)C(=O)N2[C@H]1C(=O)O , please.
0.4
